Data credit: patent US11993574B2

System: IL-17A
Experiment: IL-17 release from differentiated primary human T-cells (IL-17A HTRF assay)
Assay type: cell-based
Conditions: primary human CD4+ T cells differentiated into Th17 cells, 45-hour incubation, IL-17A in supernatant; read-out: hIL17 IC50
pIC50: −log10 of the molar value.
readout_label: pIC50

Below: 8 molecules and their reported pIC50.
{"smiles_input": "CC(C)c1cccc(-c2nn(-c3ccc(-c4ccccc4)cc3)c3c2CC[C@@H]2[C@@H](C)C(=O)C(C#N)=C[C@@]32C)c1", "assay_target": "IL-17A", "pIC50": 8.05}
{"smiles_input": "C[C@H]1C(=O)C(C#N)=C[C@@]2(C)c3nn(-c4ccc(OC(F)(F)F)cc4)c(-c4ccccc4)c3CC[C@H]12", "assay_target": "IL-17A", "pIC50": 7.03}
{"smiles_input": "C[C@H]1C(=O)C(C#N)=C[C@@]2(C)c3c(c(-c4cncnc4)nn3-c3ccc(-c4ccccc4)cc3)CC[C@H]12", "assay_target": "IL-17A", "pIC50": 7.24}
{"smiles_input": "CC(C)c1ccc(-c2nc3c(n2Cc2ccccn2)CC[C@@H]2[C@@H](C)C(=O)C(C#N)=C[C@@]32C)cc1", "assay_target": "IL-17A", "pIC50": 7.14}
{"smiles_input": "CC(C)c1ccc(-c2nc3c(n2C2CC2)CC[C@@H]2[C@@H](C)C(=O)C(C#N)=C[C@@]32C)cc1", "assay_target": "IL-17A", "pIC50": 6.95}
{"smiles_input": "C[C@H]1C(=O)C(C#N)=C[C@@]2(C)c3nn(-c4ccc(-c5ccccc5)cc4)c(CC4CCC4)c3CC[C@H]12", "assay_target": "IL-17A", "pIC50": 7.37}
{"smiles_input": "Cc1noc(-c2nn(-c3ccc(-c4cccnc4)cc3)c3c2CC[C@@H]2[C@@H](C)C(=O)C(C#N)=C[C@@]32C)n1", "assay_target": "IL-17A", "pIC50": 6.79}
{"smiles_input": "C[C@H]1C(=O)C(C#N)=C[C@@]2(C)c3nc(-c4cnc5ccccc5c4)n(-c4cccc(F)c4)c3CC[C@H]12", "assay_target": "IL-17A", "pIC50": 6.62}

[a] C[C@H]1C(=O)C(C#N)=C[C@@]2(C)c3nc(-c4ccnc(C(F)(F)F)c4)n(-c4cccc(F)c4)c3CC[C@H]12
[b] C[C@H]1C(=O)C(C#N)=C[C@@]2(C)c3c(c(-c4ccncn4)nn3-c3ccc(-c4cccnc4)cn3)CC[C@H]12
[c] C[C@H]1C(=O)C(C#N)=C[C@@]2(C)c3c(c(-c4ccc(CO)cc4)nn3-c3ccc(-c4ccccc4)cc3)CC[C@H]12
Order each entry by recorded pIC50, climbing from the minimum. Give the order by naming the labels one after another as requested.
a, b, c

[A] C[C@H]1C(=O)C(C#N)=C[C@@]2(C)c3c(c(-c4ccccc4)nn3-c3ccc(-c4ccccc4)cc3)CC[C@H]12
[B] C[C@H]1C(=O)C(C#N)=C[C@@]2(C)c3c(c(-c4ccccc4)nn3-c3ccc(-c4ccncc4)cc3)CC[C@H]12
// returns A or B , whichever has the lower pIC50 // output: label of the selected item
B

[I] CC(C)c1cccc(-c2nc3c(n2-c2cccc(F)c2)CC[C@@H]2[C@@H](C)C(=O)C(C#N)=C[C@@]32C)c1
[II] C[C@H]1C(=O)C(C#N)=C[C@@]2(C)c3c(c(-c4ccccc4)nn3-c3ccc(Cl)c(Cl)c3)CC[C@H]12
// returns I or II , whichever has the lower pIC50 // output: label of the selected item
I
(I: 6.70, II: 7.11)

[P] C[C@H]1C(=O)C(C#N)=C[C@@]2(C)c3nc(-c4ccnc(C5CC5)c4)n(-c4cccc(F)c4)c3CC[C@H]12
[Q] C[C@H]1C(=O)C(C#N)=C[C@@]2(C)c3nn(C4CCCCC4)c(-c4ccccc4)c3CC[C@H]12
// returns P or Q , whichever has the lower pIC50 // output: label of the selected item
P
